reportedProperty: melting point

CCOc1ccc(NC(=O)C2C=Nc3cccc(=O)n32)c(F)c1 (stereo not drawn)
> 216 °C (dec.)
Cc1ccc(F)c(NC(=O)C2C=Nc3cccc(=O)n32)c1 (stereo not drawn)
280 to 285 °C (dec.)
Cc1cc(=O)n2c(C(=O)Nc3cc(F)ccc3F)c[nH]c2c1
> 285 °C (dec.)

Field melting point (entry O=C(Nc1cccc(C(F)(F)F)c1F)C1C=Nc2cccc(=O)n21 (stereo not drawn) ) reads 274 to 277 °C (dec.)

The recorded melting point for entry O=C(Nc1ccc(OC(F)(F)F)cc1)C1C=Nc2cccc(=O)n21 (stereo not drawn) equals 273 to 275 °C

Lookup result for CN(C)CCOc1ccc(NC(=O)C2C=Nc3cccc(=O)n32)cc1 (stereo not drawn) ; measured melting point: 198 to 210 °C
